For each of the molecules below, state its log10(IC50).
assay: Antiproliferative activity against human HL60 cells after 72 hrs by MTT assay; format: functional, cell-based; conditions: HL-60, 72 h
Scale: decimal log of IC50, IC50 in nM.

q: Request the reported log10(IC50) associated with NC1=NC2(CCOCC2)N(OCCCOc2ccccc2Br)C(N)=N1
a: 2.79

q: Request the reported log10(IC50) associated with Cc1cc(C)cc(OCCCON2C(N)=NC(N)=NC23CCOCC3)c1
a: 2.86

q: Request the reported log10(IC50) associated with NC1=NC2(CCSCC2)N(OCCCOc2ccc(Cl)cc2)C(N)=N1
a: 2.63

q: Request the reported log10(IC50) associated with NC1=NC2(CCSCC2)N(OCCCOc2cccc(Br)c2)C(N)=N1
a: 2.30

q: Request the reported log10(IC50) associated with Cc1ccc(OCCCON2C(N)=NC(N)=NC23CCOCC3)cc1
a: 3.41

q: Request the reported log10(IC50) associated with NC1=NC2(CCOCC2)N(OCCCOc2ccc(Br)cc2)C(N)=N1
a: 2.49

----------
test: cells; settings: Homo sapiens, HCT-116, 72 h
Description: Antiproliferative activity against human HCT116 cells after 72 hrs by MTT assay
pIC50: −log10 of the molar value.
Give yes when the value for pIC50 is at least 8. Give no when it is less.

q: Evaluate COc1cccc2c1C(=O)c1c(O)c3c(c(O)c1C2=O)C[C@@](O)(C(=O)CO)C[C@@H]3O[C@H]1C[C@H](N)[C@H](O)[C@H](C)O1 : pIC50 at minimum 8?
a: no

q: Evaluate NC1=NC2(CCOCC2)N(OCCCOc2ccc(Cl)c(Cl)c2)C(N)=N1 : pIC50 at minimum 8?
a: no

q: Evaluate NC1=NC2(CCSCC2)N(OCCCOc2ccccc2Cl)C(N)=N1 : pIC50 at minimum 8?
a: yes

q: Evaluate NC1=NC2(CCSCC2)N(OCCCOc2ccccc2Br)C(N)=N1 : pIC50 at minimum 8?
a: yes

q: Evaluate NC1=NC2(CCOCC2)N(OCCCOc2ccc(Br)cc2)C(N)=N1 : pIC50 at minimum 8?
a: no

q: Evaluate NC1=NC2(CCOCC2)N(OCCCOc2ccc(Cl)cc2)C(N)=N1 : pIC50 at minimum 8?
a: no

q: Evaluate NC1=NC2(CCSCC2)N(OCCCOc2cccc(Cl)c2)C(N)=N1 : pIC50 at minimum 8?
a: yes

q: Evaluate NC1=NC2(CCOCC2)N(OCCCOc2ccccc2Cl)C(N)=N1 : pIC50 at minimum 8?
a: no

q: Evaluate NC1=NC2(CCOCC2)N(OCCCOc2cccc(Cl)c2Cl)C(N)=N1 : pIC50 at minimum 8?
a: yes

----------
assay: Antiproliferative activity against human HL60 cells after 72 hrs by MTT assay; format: functional, cell-based; details: HL-60, 72 h
MEASURED PROPERTY: pIC50
Reminder that pIC50 means the negative base-10 logarithm of the concentration expressed in mol/L.

q: Request the reported pIC50 associated with CN(Cc1cnc2nc(N)nc(N)c2n1)c1ccc(C(=O)N[C@@H](CCC(=O)O)C(=O)O)cc1 [METHOTREXATE]
a: 5.96

q: Request the reported pIC50 associated with NC1=NC2(CCSCC2)N(OCCCOc2ccccc2Br)C(N)=N1
a: 6.74

q: Request the reported pIC50 associated with NC1=NC2(CCSCC2)N(OCCCOc2ccccc2Cl)C(N)=N1
a: 6.41

q: Request the reported pIC50 associated with NC1=NC2(CCOCC2)N(OCCCOc2ccc(Cl)c(Cl)c2)C(N)=N1
a: 5.91

q: Request the reported pIC50 associated with NC1=NC2(CCOCC2)N(OCCCOc2ccc(F)cc2)C(N)=N1
a: 5.62

q: Request the reported pIC50 associated with COc1ccc(OCCCON2C(N)=NC(N)=NC23CCSCC3)cc1
a: 6.30

q: Request the reported pIC50 associated with NC1=NC2(CCOCC2)N(OCCCOc2cccc(Br)c2)C(N)=N1
a: 6.25

q: Request the reported pIC50 associated with NC1=NC2(CCSCC2)N(OCCCOc2ccc(Cl)c(Cl)c2)C(N)=N1
a: 6.85

q: Request the reported pIC50 associated with CC(C)(C)c1ccc(OCCCON2C(N)=NC(N)=NC23CCSCC3)cc1
a: 6.55

q: Request the reported pIC50 associated with CC(C)(C)c1ccc(OCCCON2C(N)=NC(N)=NC23CCOCC3)cc1
a: 6.06
